Source listed as patent US20080214606A1.

Exercise: state measured Correlation for each of the compounds provided.
molecular target: ABCB11 (Homo sapiens, UniProt O95342); construct: profiled in 60 diverse cancer cell lines (the NCI-60) using real-time RT-PCR; endogenous in cells; host or cells: NCI-60 human cancer cell lines; test: Correlation of ABCB11 expression with drug sensitivity across the NCI-60; format: cell-based; conditions: Pearson correlation of ABCB11 expression with sensitivity of the 60 cell lines; 1429 compounds; inverse, p < 0.0001
Sequence (O95342 whole entry): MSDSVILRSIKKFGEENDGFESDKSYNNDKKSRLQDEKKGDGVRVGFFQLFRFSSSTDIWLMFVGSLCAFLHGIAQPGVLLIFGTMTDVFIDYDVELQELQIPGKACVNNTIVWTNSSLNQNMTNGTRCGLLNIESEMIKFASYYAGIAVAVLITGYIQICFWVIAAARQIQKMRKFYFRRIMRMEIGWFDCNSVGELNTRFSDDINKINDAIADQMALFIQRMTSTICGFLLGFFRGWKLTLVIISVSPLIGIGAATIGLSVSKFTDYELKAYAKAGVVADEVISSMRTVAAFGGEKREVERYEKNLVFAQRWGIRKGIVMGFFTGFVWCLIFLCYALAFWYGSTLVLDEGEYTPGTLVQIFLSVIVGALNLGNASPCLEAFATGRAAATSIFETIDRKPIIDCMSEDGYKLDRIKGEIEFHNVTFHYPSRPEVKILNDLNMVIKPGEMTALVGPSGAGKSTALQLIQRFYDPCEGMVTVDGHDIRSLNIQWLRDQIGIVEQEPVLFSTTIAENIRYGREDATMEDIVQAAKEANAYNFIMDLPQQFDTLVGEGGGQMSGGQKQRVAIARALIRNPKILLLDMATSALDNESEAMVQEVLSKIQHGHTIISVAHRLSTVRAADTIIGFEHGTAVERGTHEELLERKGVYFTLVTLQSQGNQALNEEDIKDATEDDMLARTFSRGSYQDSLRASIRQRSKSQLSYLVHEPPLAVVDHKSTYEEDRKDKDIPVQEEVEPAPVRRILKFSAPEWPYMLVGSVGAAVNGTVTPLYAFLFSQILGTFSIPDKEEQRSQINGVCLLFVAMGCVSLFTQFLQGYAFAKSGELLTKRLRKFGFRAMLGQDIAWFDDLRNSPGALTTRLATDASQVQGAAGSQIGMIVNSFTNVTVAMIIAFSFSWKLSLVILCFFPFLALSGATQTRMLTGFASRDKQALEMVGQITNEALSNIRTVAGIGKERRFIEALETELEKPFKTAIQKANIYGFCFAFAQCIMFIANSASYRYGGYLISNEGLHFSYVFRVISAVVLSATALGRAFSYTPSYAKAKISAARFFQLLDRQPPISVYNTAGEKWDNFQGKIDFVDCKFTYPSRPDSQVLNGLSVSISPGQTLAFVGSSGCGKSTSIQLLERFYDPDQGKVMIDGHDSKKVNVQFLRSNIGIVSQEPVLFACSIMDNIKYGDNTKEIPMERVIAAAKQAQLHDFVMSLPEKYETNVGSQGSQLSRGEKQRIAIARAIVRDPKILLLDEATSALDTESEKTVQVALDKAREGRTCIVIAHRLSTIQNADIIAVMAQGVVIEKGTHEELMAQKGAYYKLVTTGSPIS

Provide value of Correlation for this record tested with ABCB11 (Homo sapiens, UniProt O95342): `CC1=CC(=O)C(C)=CC1=O`
−0.4683

Provide value of Correlation for this record tested with ABCB11 (Homo sapiens, UniProt O95342): `CC1(C)C[C@]23[C@@H]4COC(=O)[C@H]2CC[C@H]1[C@@H]3CC4=O`
−0.5273

Provide value of Correlation for this record tested with ABCB11 (Homo sapiens, UniProt O95342): `C=CCn1c2ccccc2c2c(C)c3cnccc3c(C)c21`
−0.5267

Provide value of Correlation for this record tested with ABCB11 (Homo sapiens, UniProt O95342): `O=C1C(CO)=C[C@H](O)[C@H]2O[C@@H]12`
−0.4430

Provide value of Correlation for this record tested with ABCB11 (Homo sapiens, UniProt O95342): `Cc1c2ccnc(C(N)=O)c2c(C)c2c1[nH]c1ccccc12.Cl`
−0.4214

----------
molecular target: ABCD1 (Homo sapiens); construct: profiled in 60 diverse cancer cell lines (the NCI-60) using real-time RT-PCR; endogenous in cells; host or cells: NCI-60 human cancer cell lines; assay: Correlation of ABCD1 expression with drug sensitivity across the NCI-60; format: cell-based; conditions: Pearson correlation of ABCD1 expression with sensitivity of the 60 cell lines; 1429 compounds; inverse, p < 0.0001
value-kind: Correlation
Provide a numeric answer; units are not to be included.

Please report the recorded Correlation for `c1ccc2c(c1)Nc1cccc3c1c-2nc1ccccc13` .
−0.4001

Please report the recorded Correlation for `CCN(CC)CCCNc1ccc2nnn3c4ccc(O)cc4c(=O)c1c23` .
−0.4346

Please report the recorded Correlation for `Cc1c2ccncc2c(C)c2c1[nH]c1ccc(OCCN(C)C)cc12` .
−0.5453

Please report the recorded Correlation for `CCN(CC)CCCNc1ncc(C)c2c1c1ccc3c(O)cccc3c1n2C` .
−0.4252

Please report the recorded Correlation for `CN(C)CCCNc1ccc2nnn3c4ccc(O)cc4c(=O)c1c23` .
−0.4258

Please report the recorded Correlation for `OCCOc1ccc(-c2cc(-c3ccccn3)nc(-c3ccccn3)c2)cc1` .
−0.4694

Please report the recorded Correlation for `COc1ccc2[nH]c3c(C)c4ccncc4c(C)c3c2c1` .
−0.5711

Please report the recorded Correlation for `CCN(CC)CCNc1ccc2ncn3c4ccc(OC)cc4c(=O)c1c23` .
−0.4825

Please report the recorded Correlation for `COc1ccc2c(c1)-c1nn(CCCN(C)C)c3ccc([N+](=O)[O-])c(c13)N2` .
−0.4599

Please report the recorded Correlation for `CN(O)C(=O)c1ccc(OCc2cccc(Cl)c2)cc1` .
−0.5034

Please report the recorded Correlation for `O=c1cc(O)ccn1[C@@H]1O[C@H](CO)[C@@H](O)[C@H]1O` .
−0.4214

Please report the recorded Correlation for `N[C@H](C(=O)O)[C@@H]1CC(Cl)=NO1` .
−0.4301

----------
target: ABCB1 (Homo sapiens); test: Correlation of ABCB1 expression with drug sensitivity across the NCI-60
Exercise: state measured Pearson's Correlation Coeff for each of the compounds provided.
Provide a numeric answer; units are not to be included.

Please report the recorded Pearson's Correlation Coeff for `CCc1nc(N)nc(N)c1-c1ccc(Cl)c(N=NN(C)C)c1` .
0.2872

Please report the recorded Pearson's Correlation Coeff for `S=C(N/N=C\C=N/NC(=S)N1CCCCC1)N1CCCCC1` .
0.3180

Please report the recorded Pearson's Correlation Coeff for COc1cccc2c1C(=O)c1c(O)c3c(c(O)c1C2=O)C[C@@](O)(C(C)=O)C[C@@H]3OC1CC(N(Cc2ccccc2)Cc2ccccc2)C(O)C(C)O1.Cl (stereo partly drawn) .
0.2268

Please report the recorded Pearson's Correlation Coeff for `O=c1cc(-c2cccc(OCc3ccccc3)c2)[nH]c2cc3c(cc12)OCO3` .
0.2253

Please report the recorded Pearson's Correlation Coeff for `O=C([O-])c1ccc(C(=O)[O-])c(C(=O)[O-])c1.[H+].[NH-]C1CCCCC1[NH-].[Pt+4]` .
0.2678

Please report the recorded Pearson's Correlation Coeff for `O=c1cc(O)ccn1[C@@H]1O[C@H](CO)[C@@H](O)[C@H]1O` .
0.2357

Please report the recorded Pearson's Correlation Coeff for `CCCCCCOc1ccc(C(=O)N(C)O)cc1` .
0.4825

Please report the recorded Pearson's Correlation Coeff for `COc1ccc(C(=O)c2cc(OC)c(OC)c(OC)c2)cc1` .
0.2464

Please report the recorded Pearson's Correlation Coeff for `Oc1ccc2ccccc2c1-c1nnc(CCCCCCCCc2nnc(-c3c(O)ccc4ccccc34)o2)o1` .
0.2621

----------
target: ABCA1 (Homo sapiens, UniProt O95477); construct: profiled in 60 diverse cancer cell lines (the NCI-60) using real-time RT-PCR; endogenous in cells; host or cells: NCI-60 human cancer cell lines; assay: Correlation of ABCA1 expression with drug sensitivity across the NCI-60; type: cell-based; conditions: Pearson correlation of ABCA1 expression with sensitivity of the 60 cell lines; 1429 compounds; inverse, p < 0.0001
Sequence (O95477 whole entry): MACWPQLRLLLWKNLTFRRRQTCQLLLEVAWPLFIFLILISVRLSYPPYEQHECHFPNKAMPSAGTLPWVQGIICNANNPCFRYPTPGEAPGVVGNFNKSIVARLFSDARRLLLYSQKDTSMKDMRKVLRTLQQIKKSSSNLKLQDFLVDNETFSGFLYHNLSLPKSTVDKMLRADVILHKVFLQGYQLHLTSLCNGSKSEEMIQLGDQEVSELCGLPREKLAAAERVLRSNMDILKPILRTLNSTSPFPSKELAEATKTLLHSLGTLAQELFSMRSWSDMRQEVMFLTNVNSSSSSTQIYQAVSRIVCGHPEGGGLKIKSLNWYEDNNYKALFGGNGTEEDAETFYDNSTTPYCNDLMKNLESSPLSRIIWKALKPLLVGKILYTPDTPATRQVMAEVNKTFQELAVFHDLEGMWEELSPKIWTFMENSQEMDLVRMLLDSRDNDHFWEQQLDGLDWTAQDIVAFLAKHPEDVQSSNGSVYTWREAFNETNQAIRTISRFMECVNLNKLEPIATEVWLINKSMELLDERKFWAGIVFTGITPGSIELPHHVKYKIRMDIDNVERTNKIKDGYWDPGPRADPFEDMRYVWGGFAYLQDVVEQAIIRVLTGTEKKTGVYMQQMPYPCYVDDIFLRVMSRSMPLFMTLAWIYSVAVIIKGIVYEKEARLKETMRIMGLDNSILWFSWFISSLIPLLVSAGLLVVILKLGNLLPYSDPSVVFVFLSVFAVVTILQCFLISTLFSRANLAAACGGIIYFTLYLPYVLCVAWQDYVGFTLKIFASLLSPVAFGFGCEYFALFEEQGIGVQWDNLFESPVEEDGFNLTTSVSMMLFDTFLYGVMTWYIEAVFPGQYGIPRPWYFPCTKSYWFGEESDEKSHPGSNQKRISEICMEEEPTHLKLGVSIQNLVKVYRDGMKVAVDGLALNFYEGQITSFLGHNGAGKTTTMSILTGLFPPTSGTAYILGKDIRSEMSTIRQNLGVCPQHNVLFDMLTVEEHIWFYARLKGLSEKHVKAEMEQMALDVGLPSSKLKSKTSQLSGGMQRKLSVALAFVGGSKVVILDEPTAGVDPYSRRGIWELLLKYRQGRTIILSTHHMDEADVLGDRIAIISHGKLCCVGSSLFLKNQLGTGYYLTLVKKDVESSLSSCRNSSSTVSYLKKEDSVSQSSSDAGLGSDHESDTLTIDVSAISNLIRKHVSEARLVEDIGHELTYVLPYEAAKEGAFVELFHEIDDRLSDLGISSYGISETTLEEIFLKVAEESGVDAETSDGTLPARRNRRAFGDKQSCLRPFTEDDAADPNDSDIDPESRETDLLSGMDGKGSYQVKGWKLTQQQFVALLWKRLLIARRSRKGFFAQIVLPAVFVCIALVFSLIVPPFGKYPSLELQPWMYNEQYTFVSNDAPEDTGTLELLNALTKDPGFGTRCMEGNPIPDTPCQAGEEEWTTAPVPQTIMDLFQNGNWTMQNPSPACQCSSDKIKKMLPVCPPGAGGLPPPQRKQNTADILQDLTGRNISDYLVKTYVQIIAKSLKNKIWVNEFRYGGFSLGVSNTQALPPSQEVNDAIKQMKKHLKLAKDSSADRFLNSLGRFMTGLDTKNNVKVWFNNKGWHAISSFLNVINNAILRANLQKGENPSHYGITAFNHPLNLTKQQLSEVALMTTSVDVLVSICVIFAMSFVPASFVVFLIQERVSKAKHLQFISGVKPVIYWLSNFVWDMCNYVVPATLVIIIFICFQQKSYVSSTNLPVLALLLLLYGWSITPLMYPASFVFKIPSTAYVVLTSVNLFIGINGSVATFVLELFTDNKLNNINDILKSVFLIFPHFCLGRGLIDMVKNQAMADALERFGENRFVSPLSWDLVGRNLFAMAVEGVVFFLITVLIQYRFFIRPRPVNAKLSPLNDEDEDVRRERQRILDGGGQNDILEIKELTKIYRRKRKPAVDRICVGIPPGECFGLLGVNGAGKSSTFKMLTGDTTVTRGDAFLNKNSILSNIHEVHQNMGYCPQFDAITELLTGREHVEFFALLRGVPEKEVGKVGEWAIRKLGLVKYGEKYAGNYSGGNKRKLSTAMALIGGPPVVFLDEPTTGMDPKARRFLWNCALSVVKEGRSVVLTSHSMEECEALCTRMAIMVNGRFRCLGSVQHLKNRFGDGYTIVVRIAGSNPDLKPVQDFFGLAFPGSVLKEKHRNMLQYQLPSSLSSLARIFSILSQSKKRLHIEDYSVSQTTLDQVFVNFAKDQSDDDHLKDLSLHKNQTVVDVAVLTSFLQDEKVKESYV
value-kind: Correlation
Provide a numeric answer; units are not to be included.

Provide value of Correlation for this record tested with ABCA1 (Homo sapiens, UniProt O95477): OCCO[P+]1(OCCO)n2c3ccc2C(c2ccccc2)=C2C=CC(=N2)C(c2ccccc2)=c2ccc(n21)=C(c1ccccc1)C1=NC(=C3c2ccccc2)C=C1 [NSC 682066]
−0.3783

Provide value of Correlation for this record tested with ABCA1 (Homo sapiens, UniProt O95477): CC[n+]1c(/C=C/c2ccc(N(CCCl)CCCl)cc2)ccc2cc(NC(=O)/C=C/c3ccccc3)ccc21.[I-] [NSC 640085]
−0.3580

Provide value of Correlation for this record tested with ABCA1 (Homo sapiens, UniProt O95477): CC(=O)O[C@@H]1[C@@H](O)[C@H](O[C@H]2[C@H](OC(=O)[C@H]3CC[C@@H]4[C@H](C3)O[C@@]3(C[C@H](OC(=O)/C=C/c5ccccc5)[C@H](C)CO3)[C@]43CO3)O[C@H](C)[C@@H](O)[C@@H]2OC(C)=O)O[C@H](C)[C@H]1O [NSC 328426, phyllanthoside]
−0.2806

Provide value of Correlation for this record tested with ABCA1 (Homo sapiens, UniProt O95477): CN(C)c1ccc(/C=c2/c3ccccc3n3c2cc(-c2ccc(Cl)cc2)[n+]3C)cc1.O=S(=O)([O-])C(F)(F)F [NSC 699479]
−0.4141

----------
molecular target: ABCB1 (Homo sapiens, UniProt P08183); assay: Correlation of ABCB1 expression with drug sensitivity across the NCI-60
Sequence (P08183 whole entry): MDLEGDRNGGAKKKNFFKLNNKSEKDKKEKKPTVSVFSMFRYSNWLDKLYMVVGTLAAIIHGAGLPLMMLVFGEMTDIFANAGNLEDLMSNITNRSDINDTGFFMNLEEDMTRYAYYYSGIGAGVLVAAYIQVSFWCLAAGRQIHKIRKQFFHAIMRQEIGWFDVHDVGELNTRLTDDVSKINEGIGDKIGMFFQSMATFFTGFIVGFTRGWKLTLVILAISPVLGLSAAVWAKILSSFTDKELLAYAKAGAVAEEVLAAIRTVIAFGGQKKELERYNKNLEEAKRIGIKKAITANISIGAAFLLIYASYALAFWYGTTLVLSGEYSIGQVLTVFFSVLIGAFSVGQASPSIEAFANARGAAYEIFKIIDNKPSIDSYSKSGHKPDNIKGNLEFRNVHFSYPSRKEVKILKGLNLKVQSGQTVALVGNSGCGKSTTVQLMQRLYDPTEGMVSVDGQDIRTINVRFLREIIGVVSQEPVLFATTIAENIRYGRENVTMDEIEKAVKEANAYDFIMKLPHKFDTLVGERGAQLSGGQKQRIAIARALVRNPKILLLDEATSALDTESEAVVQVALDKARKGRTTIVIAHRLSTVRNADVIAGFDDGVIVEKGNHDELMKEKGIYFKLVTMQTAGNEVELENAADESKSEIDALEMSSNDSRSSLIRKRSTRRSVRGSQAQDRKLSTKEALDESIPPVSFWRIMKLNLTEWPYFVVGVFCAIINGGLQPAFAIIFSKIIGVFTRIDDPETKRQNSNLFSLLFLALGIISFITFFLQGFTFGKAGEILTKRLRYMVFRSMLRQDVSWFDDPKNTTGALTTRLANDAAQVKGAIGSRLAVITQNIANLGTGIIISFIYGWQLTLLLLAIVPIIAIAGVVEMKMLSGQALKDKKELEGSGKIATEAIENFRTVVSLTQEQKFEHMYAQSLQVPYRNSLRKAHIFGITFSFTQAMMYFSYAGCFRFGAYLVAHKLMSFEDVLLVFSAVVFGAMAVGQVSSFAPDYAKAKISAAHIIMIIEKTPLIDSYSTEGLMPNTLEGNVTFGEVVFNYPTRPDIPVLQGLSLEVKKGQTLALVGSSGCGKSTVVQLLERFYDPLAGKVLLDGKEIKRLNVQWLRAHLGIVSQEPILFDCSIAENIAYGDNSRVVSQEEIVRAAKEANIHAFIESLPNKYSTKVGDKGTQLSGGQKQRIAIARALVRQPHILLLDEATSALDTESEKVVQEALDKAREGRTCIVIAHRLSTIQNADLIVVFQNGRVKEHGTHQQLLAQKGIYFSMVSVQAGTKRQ
Kindly apply the following: 1 if Pearson's Correlation Coeff is less than 0.3, -1 in every other case.

# strict comparison: is reported Pearson's Correlation Coeff < 0.3? input = `Nc1ccn([C@@H]2C=C(CO)[C@@H](O)[C@H]2O)c(=O)n1`
1

# strict comparison: is reported Pearson's Correlation Coeff < 0.3? input = `C=C1C(=O)O[C@H]2[C@H]1[C@@H](OC(=O)C=C(C)C)CC1=C[C@@H](C[C@@]3(C)O[C@@H]23)OC1=O`
1

# strict comparison: is reported Pearson's Correlation Coeff < 0.3? input = Nc1nc(N)c2cc(CNc3ccc(C(=O)NC(CC(=O)O)C(=O)O)c(Cl)c3)ccc2n1 (stereo not shown)
1

# strict comparison: is reported Pearson's Correlation Coeff < 0.3? input = `COc1ccc(O)c(/C=N/NC(=S)N2CCCCC2)c1`
-1

# strict comparison: is reported Pearson's Correlation Coeff < 0.3? input = CC1(C)C2CC1C(C(O)C1c3cc(-c4ccccn4)ncc3C3CC1C3(C)C)c1cc(-c3ccccn3)ncc12 (stereo not shown)
1

# strict comparison: is reported Pearson's Correlation Coeff < 0.3? input = `O=[N+]([O-])c1ccc(O)c(/C=N/NC(=S)N2CCCCC2)c1`
-1

# strict comparison: is reported Pearson's Correlation Coeff < 0.3? input = `CCc1nc(N)nc(N)c1-c1ccc(NC)c([N+](=O)[O-])c1`
-1

# strict comparison: is reported Pearson's Correlation Coeff < 0.3? input = `O=c1cc(-c2ccccc2F)[nH]c2cc3c(cc12)OCO3`
1

# strict comparison: is reported Pearson's Correlation Coeff < 0.3? input = `CCCCc1[nH]ccc2c(C)c3nc4ccccc4c3cc12`
-1

# strict comparison: is reported Pearson's Correlation Coeff < 0.3? input = `CC(C)=CCC[C@@H](C)c1c2ncc[nH]c-2c(C)c(=O)c1O`
-1

# strict comparison: is reported Pearson's Correlation Coeff < 0.3? input = `NC(=O)c1[nH]nc([C@@H]2O[C@H](CO)[C@@H](O)[C@H]2O)c1O`
1

# strict comparison: is reported Pearson's Correlation Coeff < 0.3? input = `CCCOc1ccc(-c2nc(-c3ccc(N=Cc4ccc(N(CCOS(C)(=O)=O)CCOS(C)(=O)=O)cc4C)cc3)cs2)cc1`
1

# strict comparison: is reported Pearson's Correlation Coeff < 0.3? input = `CCNc1nnc(-c2ccccc2Nc2ccccc2-c2nnc(NCC)s2)s1`
-1

# strict comparison: is reported Pearson's Correlation Coeff < 0.3? input = `CC(C)=CCC[C@@H](C)c1c2[nH]c3ccccc3sc-2c(C)c(=O)c1=O`
-1

# strict comparison: is reported Pearson's Correlation Coeff < 0.3? input = CN(C)CC1CCC/C(=C\c2ccc(OC(=O)/C=C/c3ccc(Cl)c(Cl)c3)cc2)C1=O.Cl (stereo not shown)
1

# strict comparison: is reported Pearson's Correlation Coeff < 0.3? input = `Nc1nc(N)c2nc(CNc3ccc(C(=O)N[C@@H](CCCNC(=O)c4ccccc4C(=O)O)C(=O)O)cc3)cnc2n1`
1

# strict comparison: is reported Pearson's Correlation Coeff < 0.3? input = `O=C(NO)c1cccc(OCc2ccc(Br)cc2)c1`
-1
